IC50 for assorted compounds
- Test system: MCF7
- experimental.protocol: Cytotoxicity against human MCF7 cells assessed as inhibition of cell proliferation/survival after 72 hrs by resazurin dye reduction assay
- Type: functional, cell-based
- assay.context: MCF7, 72 h

- compound: "CC1=C(CO)C(=O)O[C@@H]([C@@H](C)[C@H]2CC[C@H]3[C@@H]4C[C@H]5O[C@]56[C@@H](O)C=CC(=O)[C@]6(C)[C@H]4CC[C@]23C)C1 [WITHAFERIN A]"
  units.text: "nM"
  inequality.operator: "="
  IC50: 570
- compound: "CC(=O)OC[C@]12CC[C@H]3[C@@H](CC=C4CC=CC(=O)[C@@]43C)[C@]1(O)[C@@H](OC(C)=O)C[C@@]2(O)[C@@](C)(O)[C@H]1CC(C)=C(C)C(=O)O1"
  units.text: "nM"
  inequality.operator: ">"
  IC50: 5000
- compound: "CC(=O)OC[C@]12CC[C@H]3[C@@H](CC=C4CC=CC(=O)[C@@]43C)[C@]1(O)[C@@H](OC(C)=O)C[C@@]2(O)[C@@](C)(O)[C@H]1CC(CO)=C(C)C(=O)O1"
  units.text: "nM"
  inequality.operator: ">"
  IC50: 5000
- compound: "COc1cccc2c1C(=O)c1c(O)c3c(c(O)c1C2=O)C[C@@](O)(C(=O)CO)C[C@@H]3O[C@H]1C[C@H](N)[C@H](O)[C@H](C)O1 [DOXORUBICIN]"
  units.text: "nM"
  inequality.operator: "="
  IC50: 320
- compound: "CC(=O)OC[C@]12CC[C@H]3[C@@H](CC=C4C=CCC(=O)[C@@]43C)[C@]1(O)CC[C@@]2(O)[C@@](C)(O)[C@H]1CC(C)=C(C)C(=O)O1"
  units.text: "nM"
  inequality.operator: ">"
  IC50: 5000
- compound: "CC(=O)OC[C@]12CC[C@H]3[C@@H](CC=C4CC=CC(=O)[C@@]43C)[C@]1(O)CC[C@@]2(O)[C@@](C)(O)[C@H]1CC(C)=C(C)C(=O)O1"
  units.text: "nM"
  inequality.operator: "="
  IC50: 1900

###

Measured pIC50, listed per entry for reference.
- system.under.test: Androgen receptor (Homo sapiens, UniProt P10275)
- Sequence (P10275 whole entry): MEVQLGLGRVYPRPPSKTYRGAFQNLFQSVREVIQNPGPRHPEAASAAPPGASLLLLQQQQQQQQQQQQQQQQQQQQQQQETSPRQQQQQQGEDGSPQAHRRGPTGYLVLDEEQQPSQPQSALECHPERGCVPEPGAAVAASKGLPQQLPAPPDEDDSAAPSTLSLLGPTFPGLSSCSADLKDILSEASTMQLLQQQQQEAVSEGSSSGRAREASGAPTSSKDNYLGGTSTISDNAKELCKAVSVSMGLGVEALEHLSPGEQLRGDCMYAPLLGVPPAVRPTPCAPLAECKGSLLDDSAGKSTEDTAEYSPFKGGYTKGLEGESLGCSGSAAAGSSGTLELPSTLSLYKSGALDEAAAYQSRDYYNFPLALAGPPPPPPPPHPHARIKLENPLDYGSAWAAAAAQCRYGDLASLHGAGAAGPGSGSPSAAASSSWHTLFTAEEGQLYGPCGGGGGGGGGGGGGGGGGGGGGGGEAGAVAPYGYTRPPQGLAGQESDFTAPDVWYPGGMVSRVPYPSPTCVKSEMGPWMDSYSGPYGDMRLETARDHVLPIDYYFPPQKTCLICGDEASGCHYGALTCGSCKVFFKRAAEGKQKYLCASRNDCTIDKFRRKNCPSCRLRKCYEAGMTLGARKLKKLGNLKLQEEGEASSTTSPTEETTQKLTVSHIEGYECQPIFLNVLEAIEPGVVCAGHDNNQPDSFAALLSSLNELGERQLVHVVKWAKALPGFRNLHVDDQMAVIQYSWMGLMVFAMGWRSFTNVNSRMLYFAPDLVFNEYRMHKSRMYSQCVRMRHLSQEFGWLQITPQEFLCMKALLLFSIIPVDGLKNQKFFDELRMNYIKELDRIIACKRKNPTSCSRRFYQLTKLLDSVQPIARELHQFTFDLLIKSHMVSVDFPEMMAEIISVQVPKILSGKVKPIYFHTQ
- experimental.protocol: Inhibition of androgen receptor in human LNCAP cells assessed as inhibition of DHT-induced SPDEF gene expression by Array Plate assay
- Format: cell-based
pIC50: −log10 of the molar value.
quantity.measured: pIC50

- chemical.string: "CC(=O)OC[C@]12CC[C@H]3[C@@H](CC=C4C=CCC(=O)[C@@]43C)[C@]1(O)CC[C@@]2(O)[C@@](C)(O)[C@H]1CC(C)=C(C)C(=O)O1"
  system.under.test: "Androgen receptor (Homo sapiens, UniProt P10275)"
  quantity.measured: "pIC50"
  data.value: 5.48
- chemical.string: "CC(=O)OC[C@]12CC[C@H]3[C@@H](CC=C4CC=CC(=O)[C@@]43C)[C@]1(O)CC[C@@]2(O)[C@@](C)(O)[C@H]1CC(C)=C(C)C(=O)O1"
  system.under.test: "Androgen receptor (Homo sapiens, UniProt P10275)"
  quantity.measured: "pIC50"
  data.value: 6.11
- chemical.string: "CC(=O)OC[C@]12CC[C@H]3[C@@H](CC=C4CC=CC(=O)[C@@]43C)[C@]1(O)[C@@H](OC(C)=O)C[C@@]2(O)[C@@](C)(O)[C@H]1CC(C)=C(C)C(=O)O1"
  system.under.test: "Androgen receptor (Homo sapiens, UniProt P10275)"
  quantity.measured: "pIC50"
  data.value: 5.57
- chemical.string: "CC(=O)OC[C@]12CC[C@H]3[C@@H](CC=C4C=CCC(=O)[C@@]43C)[C@]1(O)[C@@H](OC(C)=O)C[C@@]2(O)[C@@](C)(O)[C@H]1CC(C)=C(C)C(=O)O1"
  system.under.test: "Androgen receptor (Homo sapiens, UniProt P10275)"
  quantity.measured: "pIC50"
  data.value: 5.92

Measured values drawn from ChEMBL document CHEMBL3603831 for this set.
